All figures here come from PubChem BioAssay.

Experiment: small-molecule microarray binders of probe aNog, primary screen, biochemical, biotinylated probe, 635/667 nm fluorescence (AID 1115);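 further: probe is biotinylated aNog protein used at 0.15 µg/mL for 1 h at 4 C; z-score combines 667 nm fluorescence of each spot with its signal to noise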
Conditions: higher = more signal
reported.property: composite z-score
A bare number is all that is needed in reply.

Input line: What value of composite z-score has been reported for the following compound? `COCCOC(=O)N1C(=O)[C@@]2(c3cc(C#Cc4ccc(OC)cc4)ccc31)[C@H](C(=O)N1CCCCCCC1)[C@H]1C(=O)O[C@H](c3ccccc3)[C@H](c3ccccc3)N1[C@@H]2c1ccc(O)cc1`
Output line: 1.18

Input line: Endpoint output: composite z-score of CC(C)CCC[C@@H](C)[C@H]1CC[C@@]2(C)C3=C(CC[C@]12C)[C@@]1(C)CC[C@H](OC(=O)c2ccc(Br)cc2)C(C)(C)C1CC3 (stereo not given in full) . Value?
Output line: -0.18

Input line: Record request: composite z-score value, item C=CC1c2cc(O)c(OC)cc2CCN1Cc1sc2ccccc2c1Cl (stereo not given)
Output line: -0.0132

Input line: Give its composite z-score value. Item: COC1(C)CN(Cc2ccccc2Br)[C@H](/C=C/c2ccccc2)[C@H](Cc2ccccc2)O1 (stereo not given in full)
Output line: -0.169

Input line: Quick one: composite z-score of `C=C(/C(=C/C[C@@H](OC(=O)c1ccncc1)c1ccccc1OCCO)c1cc(C(=O)OC)ccc1OC)C(C)C` ?
Output line: -0.025

Input line: Any idea what composite z-score was measured for `COc1ccc(NC(=O)O[C@H]2[C@H](OC(=O)Nc3ccc4c(c3)OCO4)[C@@H](OC(=O)Nc3ccc4c(c3)OCO4)[C@@H](OC)O[C@@H]2CO)cc1` ?
Output line: 0.966

Input line: # composite z-score lookup, item `C[C@]1(C(=O)NCCN2CCOCC2)c2ccccc2C(=O)N(Cc2ccc(OC(F)(F)F)cc2)[C@H]1c1ccc(CO)cc1`
Output line: -0.313

Input line: Given `COC(=O)[C@@]1(Cc2ccccc2)[C@H]2c3cc(C(=O)N4CCCC4)n(Cc4ccsc4Br)c3C[C@H]2CN1C(=O)c1ccccc1` , state its recorded composite z-score.
Output line: 1.99

Input line: Consider the compound `COc1c(C)cc(-c2cc3c(c(Cc4ccccc4)n2)[Si](C(C)C)(C(C)C)OC3)cc1C` and give its measured composite z-score.
Output line: -0.393

Input line: Recorded composite z-score for `CON(C)C(=O)C=C1C[C@@H](c2cccc(Cl)c2)O[C@@H](c2cccc(Cl)c2)O1` , please?
Output line: -0.389

Input line: Reported composite z-score for O=C1OCC=C[C@H]2OC34C=CCN(Cn5nnc6ccccc65)C(=O)[C@H]3N(CCCCCCO)C(=O)[C@@H]4[C@@H]12 (stereo not given in full) : what is it?
Output line: 0.162

Input line: Requested read-out: composite z-score. Entry: `CCCN1C(=O)[C@]2(Cc3ccccc3)N=C(c3ccc(OCCCO)cc3)O[C@@H]2c2ccccc21`
Output line: -0.646

Input line: Which value of composite z-score has been reported for `C=CCNC(=O)[C@H]1[C@@H]2C(=O)O[C@@H](c3ccccc3)[C@@H](c3ccccc3)N2[C@@H](c2ccccc2OCCO)[C@]12C(=O)N(C(=O)OCCOC)c1ccc(C#CC3=CCCCC3)cc12` in the records?
Output line: 1.12

Input line: Consider the compound shown here: `NCCCCCCNC(=O)[C@@H]1C[C@@H]2C(=O)N3CCC[C@H]3C(=O)N2[C@@H]1c1ccc(O)cc1` What is its recorded composite z-score?
Output line: -0.157

Input line: Form field: reported composite z-score of `[N-]=[N+]=NCc1ccccc1C[C@@]1(C(N)=O)N=C(c2ccc(OCCCO)cc2)O[C@@H]1c1ccccc1CN=[N+]=[N-]`
Output line: 1.08
